target: human APJ receptor (Homo sapiens (Human), UniProt P35414); experiment: biochemical; settings: read-out: Activity hAPJ SPA EC50 IP
Sequence (P35414 whole entry): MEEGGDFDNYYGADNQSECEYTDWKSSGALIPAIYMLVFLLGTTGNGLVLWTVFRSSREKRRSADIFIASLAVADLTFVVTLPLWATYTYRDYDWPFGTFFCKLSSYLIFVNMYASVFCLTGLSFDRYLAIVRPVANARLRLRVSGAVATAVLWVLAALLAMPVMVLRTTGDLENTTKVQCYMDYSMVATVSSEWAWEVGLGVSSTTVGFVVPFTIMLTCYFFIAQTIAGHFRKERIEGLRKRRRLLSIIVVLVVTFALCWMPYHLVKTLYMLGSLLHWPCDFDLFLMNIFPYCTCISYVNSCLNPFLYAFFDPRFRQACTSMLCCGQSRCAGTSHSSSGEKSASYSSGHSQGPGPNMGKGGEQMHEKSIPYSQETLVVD
The entries below are paired with their reported pEC50.
# pEC50 = -log10(concentration in molar units)

Check out these entries, answers already filled in.
>>> print(df.to_string())
                                   compound  observed_result
0  COc1cnc([C@@H](OC)[C@H](C)S(=O)(=O)Nc2nnc(-c3cccnc3)n2-c2c(OC)cccc2OC)nc1             9.30
1  COc1cccc(-c2nnc(NS(=O)(=O)[C@H](C)[C@@H](OC)c3ncc(C)cn3)n2-c2c(F)cccc2F)n1             7.29

Please turn your attention to the following entry.
*Q* Give the value of pEC50 reported for the following: COc1cnc([C@@H](O)[C@H](C)S(=O)(=O)Nc2nnc(-c3cncc(C)c3)n2-c2c(OC)cccc2OC)cn1 (single isomer, unassigned) [Example 306.0]
*A* 7.70
